Quick list: mortality per entry.
test system: Achaea janata; experiment: Toxicity in third instar larvae of Achaea janata assessed as mortality at 4 ug/insect measured after 4 to 28 days by topical bioassay; format: functional
Just the number please, in %, no unit attached.

Field: example entries. Status: answers known.
COc1cccc2c1C(=O)C(NCCOC(=O)[C@H](Cc1ccccc1)NC(C)=O)=C(C)C2=O = 23.4
COc1cccc2c1C(=O)C(NCCOC(=O)CNC(C)=O)=C(C)C2=O = 100
COc1cccc2c1C(=O)C(NCCOC(=O)[C@@H](NC(C)=O)C(C)C)=C(C)C2=O = 32.6
COc1cccc2c1C(=O)C(NCCOC(=O)[C@H](Cc1ccc(O)cc1)NC(C)=O)=C(C)C2=O = 24.6

Moving on to another molecule below.
Supply recorded mortality for COc1cccc2c1C(=O)C(NCCOC(=O)[C@H](CCSC)NC(C)=O)=C(C)C2=O here.
100
